meta.source: patent US11702417B2

# Test system: FD (familial dysautomonia) IKBKAP minigene, exon 20 inclusion, in HEK293T cells
# test protocol: Primary splicing assay (FD IKBKAP minigene, Firefly/Renilla luciferase reporter in HEK293T)
# Type: cell-based, human
# reported conditions: Homo sapiens, HEK-293T; max efficacy in Primary Assay; Firefly/Renilla ratio, kinetin and DMSO as positive and negative controls; 24 hours of treatment; read-out: Emax (%)

# compound, system under test, Emax (%)
rows = [
    ("FCCn1ccc2c(NCc3nccs3)nc(Cl)nc21 [(192)]", "FD (familial dysautomonia) IKBKAP minigene, exon 20 inclusion, in HEK293T cells", 210),
    ("COCCCOc1nc2c(NCc3ccco3)nc(Cl)nc2[nH]1 [(296)]", "FD (familial dysautomonia) IKBKAP minigene, exon 20 inclusion, in HEK293T cells", 178),
    ("O=C1Cc2c(NCc3ccncc3)nc(Cl)nc2N1 [(257)]", "FD (familial dysautomonia) IKBKAP minigene, exon 20 inclusion, in HEK293T cells", 62),
    ("OCCOc1nc2c(NCc3ccncc3)nc(Cl)nc2[nH]1 [(315)]", "FD (familial dysautomonia) IKBKAP minigene, exon 20 inclusion, in HEK293T cells", 165),
    ("Clc1nc(NCc2ccnc3ccccc23)c2cc[nH]c2n1 [(186)]", "FD (familial dysautomonia) IKBKAP minigene, exon 20 inclusion, in HEK293T cells", 17),
    ("Clc1nc(NCc2nccs2)c2nc[nH]c2n1 [(131)]", "FD (familial dysautomonia) IKBKAP minigene, exon 20 inclusion, in HEK293T cells", 190),
    ("CCCOc1nc2nc(Cl)nc(NCc3ccncn3)c2n1C [(337)]", "FD (familial dysautomonia) IKBKAP minigene, exon 20 inclusion, in HEK293T cells", 23),
    ("COc1nc(NCc2ccco2)c2nc(OC)[nH]c2n1 [(365)]", "FD (familial dysautomonia) IKBKAP minigene, exon 20 inclusion, in HEK293T cells", 22.4),
    ("FC1(F)CC(COc2nc3c(NCc4cscn4)nc(Cl)nc3[nH]2)C1 [(488)]", "FD (familial dysautomonia) IKBKAP minigene, exon 20 inclusion, in HEK293T cells", 206),
    ("Clc1nc(NCc2ccco2)c2nc(OCc3ccccc3)[nH]c2n1 [(490)]", "FD (familial dysautomonia) IKBKAP minigene, exon 20 inclusion, in HEK293T cells", 176),
    ("Clc1nc(NCc2nccs2)c2nc(OCc3ccccn3)[nH]c2n1 [(500)]", "FD (familial dysautomonia) IKBKAP minigene, exon 20 inclusion, in HEK293T cells", 141),
    ("Clc1nc(NCc2ccco2)c2c(-c3ccncc3)c[nH]c2n1 [(89)]", "FD (familial dysautomonia) IKBKAP minigene, exon 20 inclusion, in HEK293T cells", 21),
    ("COc1nc2c(NCc3nccs3)nc(C#N)nc2[nH]1 [(385)]", "FD (familial dysautomonia) IKBKAP minigene, exon 20 inclusion, in HEK293T cells", 46),
    ("Cn1cnc2nc(Cl)nc(NCc3ccncc3)c21 [(313)]", "FD (familial dysautomonia) IKBKAP minigene, exon 20 inclusion, in HEK293T cells", 102),
    ("Clc1nc(NCc2ccco2)c2nc(OCCc3ccccc3)[nH]c2n1 [(492)]", "FD (familial dysautomonia) IKBKAP minigene, exon 20 inclusion, in HEK293T cells", 54.5),
    ("Clc1nc(NCc2cscn2)c2nc(OC3COC3)[nH]c2n1 [(497)]", "FD (familial dysautomonia) IKBKAP minigene, exon 20 inclusion, in HEK293T cells", 120),
    ("Fc1ccccc1CNc1nc(Cl)nc2[nH]ccc12 [(354)]", "FD (familial dysautomonia) IKBKAP minigene, exon 20 inclusion, in HEK293T cells", 57.5),
    ("N#Cc1c[nH]c2nc(Cl)nc(NCc3ccco3)c12 [(145)]", "FD (familial dysautomonia) IKBKAP minigene, exon 20 inclusion, in HEK293T cells", 59),
    ("FC(F)(F)COc1nc2c(NCc3nccs3)nc(Cl)nc2[nH]1 [(302)]", "FD (familial dysautomonia) IKBKAP minigene, exon 20 inclusion, in HEK293T cells", 176),
    ("c1cc(CNc2ncnc3[nH]cnc23)ncn1 [(68)]", "FD (familial dysautomonia) IKBKAP minigene, exon 20 inclusion, in HEK293T cells", 62),
    ("Clc1nc(NCc2ccco2)c2nn[nH]c2n1 [(285)]", "FD (familial dysautomonia) IKBKAP minigene, exon 20 inclusion, in HEK293T cells", 115),
    ("FCCn1ccc2c(NCc3ccncc3)nc(Cl)nc21 [(194)]", "FD (familial dysautomonia) IKBKAP minigene, exon 20 inclusion, in HEK293T cells", 241),
    ("Cc1c[nH]c2nc(Cl)nc(NCc3nccs3)c12 [(123)]", "FD (familial dysautomonia) IKBKAP minigene, exon 20 inclusion, in HEK293T cells", 92),
]
